Test: Cytotoxicity against rat RBL2H3 cells by MTT assay
Format: cell-based
Design: concentration or dose not given beside the values
Details: rbl-2h3
Measured Activity values are reported for all entries that follow.

Which Activity is reported for this molecule? COC(=O)C(Cc1ccccc1)NC(=O)[C@]12CC[C@@H](C)[C@H](C)[C@H]1C1=CC[C@@H]3[C@@]4(C)Cc5cnoc5C(C)(C)[C@@H]4CC[C@@]3(C)[C@]1(C)CC2 (stereo partly drawn)
0.8%

What would you report for `C[C@H]1[C@H](C)CC[C@]2(C(=O)O)CC[C@]3(C)C(=CC[C@@H]4[C@@]5(C)CC[C@H](O)C(C)(C)[C@@H]5CC[C@]43C)[C@H]12` ?
10%

More entries:
# lookup: Activity of COC(=O)C(CC(C)C)NC(=O)[C@]12CC[C@@H](C)[C@H](C)[C@H]1C1=CC[C@@H]3[C@@]4(C)Cc5cnoc5C(C)(C)[C@@H]4CC[C@@]3(C)[C@]1(C)CC2 (stereo partly drawn)
17.7%

---

Assay: Cytotoxicity against rat RBL2H3 cells by MTT assay
Type: cell-based
Parameters: concentration or dose not given beside the values
Details: rbl-2h3
quantity: Activity (%)
Please reply with the bare figure in % and do not write the unit itself.

I have this compound here, COC(=O)C(CC(C)C)NC(=O)[C@]12CC[C@@H](C)[C@H](C)[C@H]1C1=CC[C@@H]3[C@@]4(C)CC[C@H](OC(C)=O)C(C)(C)[C@@H]4CC[C@@]3(C)[C@]1(C)CC2 (stereo partly drawn) , and I need its recorded Activity.
6.6

Okay, and `C[C@H]1[C@H](C)CC[C@]2(C(=O)O)CC[C@]3(C)C(=CC[C@@H]4[C@@]5(C)C=C(C#N)C(=O)C(C)(C)[C@@H]5CC[C@]43C)[C@H]12` ?
4.3

In the following, a different compound is considered.
Recorded Activity for `CCOC(=O)CNC(=O)[C@]12CC[C@@H](C)[C@H](C)[C@H]1C1=CC[C@@H]3[C@@]4(C)Cc5nc6cc(Cl)c(Cl)cc6nc5C(C)(C)[C@@H]4CC[C@@]3(C)[C@]1(C)CC2` , please?
2
